The compounds listed here are annotated with their log10(IC50).
Test system: Vero (monkey epithelial kidney) cell line
Assay: MTT cytotoxicity assay
Type: cell-based
Conditions: after 48 h of treatment, mean ± S.D
Method: HeLa (human epithelial cervical cancer, ATCC CCL-2), HepG2 (human epithelial liver cancer, ATCC HB-8065) and Vero (monkey epithelial kidney […], ATCC CCL-81) cell lines were used to examine the selected virtual hit compounds’ anti-cancer activity. […] Cells were harvested at 80% confluence by treating the medium-free monolayer with trypsin-EDTA. Cell counts were performed with a hemocytometer, and cell viability was determined with trypan blue. […]
quantityKind: log10(IC50) (log10 of the value in µM)

# compound, log10(IC50)
rows = [
    ("O=C(CCn1[nH]c(=O)c2ccccc2c1=O)N1CCCC1c1ccc2c(c1)OCCO2 (centres unmarked) [Compound Z88]", 2.31),
    ("N.N.[Cl][Pt][Cl] [Cisplatin, cisplatin, reference compound]", 0.90),
    ("COc1ccc(C(=O)Oc2ccc3c(=O)c(Oc4ccc5ccccc5c4)coc3c2)cc1 [AF3]", 2.32),
    ("Cc1ccc(NC(=O)Cn2cnc3sc(-c4nc(-c5ccccc5)no4)c(C)c3c2=O)cc1Cl [Compound F34]", 2.12),
    ("O=S(=O)(c1cccc(NCc2cccc3ccccc23)c1)N1CCOCC1 [Compound Z21]", 2.40),
]
